target: hα7-wt nAChR-expressing GH4Cl cells (Homo sapiens, UniProt P36544); construct: expressed in transfected cells; experiment: Patch-clamp current recording (whole-cell), potentiation of choline 1 mM response, PAM type; type: cell-based; details: according to Ex. D.2; "<5" = no top plateau reached at maximal concentration; read-out: Potency (pEC50) (converted)
Sequence (P36544 23-502): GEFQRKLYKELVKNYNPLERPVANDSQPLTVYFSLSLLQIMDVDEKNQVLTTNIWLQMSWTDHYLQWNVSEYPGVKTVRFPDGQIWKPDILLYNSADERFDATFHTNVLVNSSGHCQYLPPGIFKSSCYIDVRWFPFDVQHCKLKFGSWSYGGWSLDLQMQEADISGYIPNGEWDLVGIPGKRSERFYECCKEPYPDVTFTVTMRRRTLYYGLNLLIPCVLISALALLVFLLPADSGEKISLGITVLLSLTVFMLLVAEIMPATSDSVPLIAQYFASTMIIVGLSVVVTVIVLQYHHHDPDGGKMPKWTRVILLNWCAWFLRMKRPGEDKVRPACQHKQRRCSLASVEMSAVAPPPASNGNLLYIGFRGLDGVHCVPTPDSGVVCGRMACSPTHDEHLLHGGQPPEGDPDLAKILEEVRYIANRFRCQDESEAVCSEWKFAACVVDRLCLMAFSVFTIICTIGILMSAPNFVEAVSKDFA
Experimental Endpoint: EC50 (nM)

Reference set (3 entries):
| Molecule | EC50 / nM |
| --- | --- |
| COc1ccc(-n2nc(Nc3ccc(F)c(F)c3)nc2C[C@H](C)O)cc1 [E21] | 1780 |
| COc1cc(Nc2nc(C[C@H](C)O)n(-c3ccc(C)nc3)n2)cc(C(F)(F)F)c1 [E143] | 912 |
| CCNC(=O)Cc1nc(Nc2cccc(OC(F)(F)F)c2)nn1-c1cc(C)nc(C)c1 [E181] | 513 |

A: OCCCc1nc(Nc2ccc(F)c(C(F)(F)F)c2)nn1-c1ccncc1Cl [E14]
B: CN(C)C(=O)CCc1nc(Nc2ccc(F)c(C(F)(F)F)c2)nn1-c1ccncc1 [E68]
C: CN(C)C(=O)CCc1nc(Nc2ccc(F)c(F)c2)nn1-c1ccncc1 [E67]
D: COc1ccc(-n2nc(Nc3cc(F)c(F)c(Br)c3)nc2CCC(=O)N(C)C)cc1 [E155]
Q: Would you mind ranking these molecules by ascending EC50? Put the labels in the order asked and list them.
A: D, B, C, A
(D: 28.8 nM, B: 105 nM, C: 447 nM, A: 3980 nM)

1: COc1ncccc1-n1nc(Nc2cccc(OC(F)(F)F)c2)nc1CCC(=O)N(C)C [E4]
2: Cc1cc(-n2nc(Nc3ccc(F)c(F)c3F)nc2CC(=O)NCC2CC2)cc(C)n1 [E214]
Q: Between the two listed entries 1 and 2 , which has its EC50 at the higher number? Write down the label attached to your selection.
A: 1
